- experiment-notes: self-splicing fitness, log relative to wild type (ln ratio); higher = more splicing; Tetrahymena group I intron in knt gene, E. coli kanamycin selection, DiMSum; sequences stand for … in CUCUCU…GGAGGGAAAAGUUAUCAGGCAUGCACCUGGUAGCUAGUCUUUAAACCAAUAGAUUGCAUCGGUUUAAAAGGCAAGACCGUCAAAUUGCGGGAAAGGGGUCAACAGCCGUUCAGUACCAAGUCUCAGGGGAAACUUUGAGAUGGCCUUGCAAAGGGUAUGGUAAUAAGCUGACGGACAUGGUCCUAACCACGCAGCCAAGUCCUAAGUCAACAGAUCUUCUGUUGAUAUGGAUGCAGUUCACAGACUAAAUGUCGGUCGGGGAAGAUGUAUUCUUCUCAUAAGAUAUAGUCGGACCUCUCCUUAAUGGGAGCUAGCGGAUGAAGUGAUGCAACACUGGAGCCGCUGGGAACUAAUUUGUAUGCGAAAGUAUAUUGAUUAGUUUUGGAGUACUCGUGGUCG;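 further: selection with 25 µg/mL kanamycin versus none on LB agar overnight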
- measurement-parameters: 30 °C
Classify as follows. Reported self-splicing fitness (ln) greater than or equal to -1: yes (1). Reported self-splicing fitness (ln) below: no (0).

1. GGCCAGCAAUAUUACGCCUG = no (0)
2. CUUAAGCAAUAUUACGCGUG = no (0)
3. CGGCAGCAAUAUUACGCGAA = no (0)
4. GAUAAGCAAUAUUACGGGGU = no (0)
5. CCAAAGCAAUAUUACGGCGA = no (0)
6. CACCAGCAAUAUUACGGUUA = yes (1)
7. GCGCAGCAAUAUUACGGGUU = no (0)
8. UAUUAGCAAUAUUACGCUUC = no (0)
9. ACUCAGCAAUAUUACGUUCA = no (0)
10. UCCAAGCAAUAUUACGAAAC = no (0)
11. UGGUAGCAAUAUUACGAGGC = no (0)
12. AGACAGCAAUAUUACGCUUA = yes (1)
13. GGGUAGCAAUAUUACGUAUC = no (0)
14. CAUCAGCAAUAUUACGAAAC = no (0)
15. CGUUAGCAAUAUUACGGUCG = no (0)
16. ACUAAGCAAUAUUACGGAAU = no (0)
17. GGAUAGCAAUAUUACGUGCU = no (0)
18. AUUCAGCAAUAUUACGAAUG = no (0)
19. GAAAAGCAAUAUUACGUGAA = no (0)
20. AUGCAGCAAUAUUACGGCUU = yes (1)
21. CAUCAGCAAUAUUACGGCUU = no (0)
22. GGCCAGCAAUAUUACGUCAG = no (0)
23. CUAAAGCAAUAUUACGCCUU = no (0)
24. CGUGAGCAAUAUUACGUGUC = no (0)
25. GGACAGCAAUAUUACGGAUG = no (0)
26. CAGCAGCAAUAUUACGCGGA = no (0)
27. GUGCAGCAAUAUUACGAACU = no (0)
28. UGCAAGCAAUAUUACGUCCG = yes (1)
29. ACAGAGCAAUAUUACGUCAA = no (0)
30. AACCAGCAAUAUUACGUUUC = no (0)
31. GGACAGCAAUAUUACGCUUU = no (0)
32. AGUAAGCAAUAUUACGGUUA = yes (1)
33. UUUCAGCAAUAUUACGUAAA = yes (1)
34. UACGAGCAAUAUUACGAUCG = yes (1)

Source of measurements: the supplement of paper PMC7877785
